Experiment: Ocular tissue and plasma distribution after topical ocular instillation (LC-MS/MS)
Type: in vivo, New Zealand White rabbits
Conditions: male, New Zealand White, rabbit, in vivo, Ocular tissue concentration, Conjunctiva, Mean
Measured Property: concentration at 5 day of dosing (ng/g)
Answers are plain numbers, in ng/g.

Inquiry: Could you share which concentration at 5 day of dosing value was measured for `COc1cc2nccc(Oc3ccc(NC(=O)NC4CC4)c(Cl)c3)c2cc1C(N)=O` ?
Reply text: 300

----------
Assay: Ocular tissue and plasma distribution after topical ocular instillation (LC-MS/MS)
Type: in vivo, New Zealand White rabbits
Conditions: male, New Zealand White, rabbit, in vivo, Ocular tissue concentration, Cornea, Mean
Protocol: The objective of this study was to assess the local tolerance and ocular distribution of sorafenib and lenvatinib (0.3% w/w) when administered by topical ocular instillation in the eyes. Five to six male New Zealand White rabbits were used per treatment group. Each right eye received a 35 μL eyedrop of the vehicle, sorafenib (0.3% w/w), or lenvatinib (0.3% w/w) three times daily for 5 days. […] Tissue and plasma concentrations of the compounds were measured by LC-MS/MS.
Measured Property: concentration at 5 day of dosing
Field: value (include unit after the number)

Inquiry: Any idea what concentration at 5 day of dosing was measured for `COc1cc2nccc(Oc3ccc(NC(=O)NC4CC4)c(Cl)c3)c2cc1C(N)=O` ?
Reply text: 178 ng/g

----------
Test: Ocular tissue and plasma distribution after topical ocular instillation (LC-MS/MS)
Type: in vivo, New Zealand White rabbits
Conditions: male, New Zealand White, rabbit, aqueous humor, topical, 0.3 % w/w (35 μL eyedrop), rabbit eyes, topical instillation of 0.3% three times daily for five days, N=6; read-out: Ocular tissue concentration, Aqueous Humor, Mean
Measured Property: concentration at 5 day of dosing (ng/g)
One number for each entry, in ng/g.

Inquiry: Using the record for CNC(=O)c1cc(Oc2ccc(NC(=O)Nc3ccc(Cl)c(C(F)(F)F)c3)cc2)ccn1 [sorafenib] , report its concentration at 5 day of dosing.
Reply text: 0

----------
Assay: Ocular tissue and plasma distribution after topical ocular instillation (LC-MS/MS)
Format: in vivo, New Zealand White rabbits
Settings: male, New Zealand White, rabbit, in vivo, Ocular tissue concentration, Retina, Mean
Measured Property: concentration at 5 day of dosing
Write your answer as a measured quantity: the number, then the unit.

Inquiry: Tell me the measured concentration at 5 day of dosing of `COc1cc2nccc(Oc3ccc(NC(=O)NC4CC4)c(Cl)c3)c2cc1C(N)=O` , please.
Reply text: 23.5 ng/g

----------
Test: Ocular tissue and plasma distribution after topical ocular instillation (LC-MS/MS)
Format: in vivo, New Zealand White rabbits
Conditions: male, New Zealand White, rabbit, sclera, topical, 0.3 % w/w (35 μL eyedrop), rabbit eyes, topical instillation of 0.3% three times daily for five days, N=6; read-out: Ocular tissue concentration, Sclera, Mean
Measured Property: concentration at 5 day of dosing
# output: numeric value plus its unit

Inquiry: # lookup: concentration at 5 day of dosing of CNC(=O)c1cc(Oc2ccc(NC(=O)Nc3ccc(Cl)c(C(F)(F)F)c3)cc2)ccn1 [sorafenib]
Reply text: 16.4 ng/g

----------
Test system: full-thickness excision wounds
Assay: Histology of full-thickness excision wounds in Yucatan minipigs (fibroplasia, neovascularization)
Format: in vivo
Conditions: Yucatan minipig wound sites after two doses, Day 59; scale 1 (minimal) to 5 (severe); untreated 3.33
Measured Property: Fibroplasia; dermis, average score

Solved entries (count: 4):
[[record]]
input_smiles = "COc1cc2nccc(Oc3ccc(NC(=O)NC4CC4)c(Cl)c3)c2cc1C(N)=O"
measured = "(3.00)"

[[record]]
input_smiles = "COC(=O)c1ccc2c(c1)NC(=O)/C2=C(\\Nc1ccc(N(C)C(=O)CN2CCN(C)CC2)cc1)c1ccccc1"
measured = "(2.33)"

[[record]]
input_smiles = "COC(=O)N(C)c1c(N)nc(-c2nn(Cc3ccccc3F)c3ncccc23)nc1N"
measured = "(2.67)"

[[record]]
input_smiles = "CNC(=O)c1ccccc1Sc1ccc2c(/C=C/c3ccccn3)n[nH]c2c1"
measured = "(2.33)"


Field: Fibroplasia; dermis, average score. Fill in for each record below.
1. CNC(=O)c1cc(Oc2ccc(NC(=O)Nc3ccc(Cl)c(C(F)(F)F)c3)cc2)ccn1
2. CCN(CC)CCNC(=O)c1c(C)[nH]c(/C=C2\C(=O)Nc3ccc(F)cc32)c1C

Reply text:
1. (3.00)
2. (2.67)

----------
Assay: Ocular tissue and plasma distribution after topical ocular instillation (LC-MS/MS)
Format: in vivo, New Zealand White rabbits
Details: male, New Zealand White, rabbit, in vivo, Ocular tissue concentration, Choroid, Mean
Measured Property: concentration at 5 day of dosing (ng/g)
One number for each entry, in ng/g.

Inquiry: Given the entry `COc1cc2nccc(Oc3ccc(NC(=O)NC4CC4)c(Cl)c3)c2cc1C(N)=O` , report its measured concentration at 5 day of dosing.
Reply text: 38

----------
Experiment: Ocular tissue and plasma distribution after topical ocular instillation (LC-MS/MS)
Assay type: in vivo, New Zealand White rabbits
Conditions: male, New Zealand White, rabbit, in vivo, Ocular tissue concentration, Aqueous Humor, Mean
Measured Property: concentration at 5 day of dosing (ng/g)
Answers are plain numbers, in ng/g.

Inquiry: Please look up its concentration at 5 day of dosing: COc1cc2nccc(Oc3ccc(NC(=O)NC4CC4)c(Cl)c3)c2cc1C(N)=O [lenvatinib]
Reply text: 5.49

----------
Assay: Ocular tissue and plasma distribution after topical ocular instillation (LC-MS/MS)
Type: in vivo, New Zealand White rabbits
Details: male, New Zealand White, rabbit, plasma, topical, 0.3 % w/w (35 μL eyedrop), 0.3% w/w eyedrop 35 μL three times daily, Day 5 of dosing, read-out: plasma concentration, mean (±SD)
Measured Property: concentration at 5 day of dosing (ng/mL)
Answers are plain numbers, in ng/mL.

Inquiry: State the recorded concentration at 5 day of dosing for this entry: `CNC(=O)c1cc(Oc2ccc(NC(=O)Nc3ccc(Cl)c(C(F)(F)F)c3)cc2)ccn1`
Reply text: 5.09

----------
Assay: Ocular tissue and plasma distribution after topical ocular instillation (LC-MS/MS)
Assay type: in vivo, New Zealand White rabbits
Settings: male, New Zealand White, rabbit, cornea, topical, 0.3 % w/w (35 μL eyedrop), rabbit eyes, topical instillation of 0.3% three times daily for five days, N=6; read-out: Ocular tissue concentration, Cornea, Mean
Measured Property: concentration at 5 day of dosing
Please format your answer as a value with the unit trailing.

Inquiry: Which value of concentration at 5 day of dosing has been reported for `CNC(=O)c1cc(Oc2ccc(NC(=O)Nc3ccc(Cl)c(C(F)(F)F)c3)cc2)ccn1` in the records?
Reply text: 131 ng/g

----------
Assay: Ocular tissue and plasma distribution after topical ocular instillation (LC-MS/MS)
Assay type: in vivo, New Zealand White rabbits
Details: male, New Zealand White, rabbit, in vivo, plasma concentration, mean (±SD)
Measured Property: concentration at 5 day of dosing (ng/mL)
Numbers only, in ng/mL.

Inquiry: # concentration at 5 day of dosing lookup, item COc1cc2nccc(Oc3ccc(NC(=O)NC4CC4)c(Cl)c3)c2cc1C(N)=O [lenvatinib]
Reply text: 131

----------
Experiment: Ocular tissue and plasma distribution after topical ocular instillation (LC-MS/MS)
Assay type: in vivo, New Zealand White rabbits
Conditions: male, New Zealand White, rabbit, choroid, topical, 0.3 % w/w (35 μL eyedrop), rabbit eyes, topical instillation of 0.3% three times daily for five days, N=6; read-out: Ocular tissue concentration, Choroid, Mean
Measured Property: concentration at 5 day of dosing (ng/g)
One number for each entry, in ng/g.

Inquiry: So what does the record say about concentration at 5 day of dosing for `CNC(=O)c1cc(Oc2ccc(NC(=O)Nc3ccc(Cl)c(C(F)(F)F)c3)cc2)ccn1` ?
Reply text: 8.19

----------
Test: Ocular tissue and plasma distribution after topical ocular instillation (LC-MS/MS)
Format: in vivo, New Zealand White rabbits
Conditions: male, New Zealand White, rabbit, in vivo, Ocular tissue concentration, Sclera, Mean
Measured Property: concentration at 5 day of dosing (ng/g)
Give bare numbers, in ng/g.

Inquiry: Reported concentration at 5 day of dosing, molecule `COc1cc2nccc(Oc3ccc(NC(=O)NC4CC4)c(Cl)c3)c2cc1C(N)=O` : ____
Reply text: 49
